target.system: T1, recombinant mouse LRP5-His chimera (mouse, UniProt Q91VN0 31-1383)
T1 construct: extracellular domain; also called ECD of mouse LRP5; not shown: His tag
T1 sequence (looked up): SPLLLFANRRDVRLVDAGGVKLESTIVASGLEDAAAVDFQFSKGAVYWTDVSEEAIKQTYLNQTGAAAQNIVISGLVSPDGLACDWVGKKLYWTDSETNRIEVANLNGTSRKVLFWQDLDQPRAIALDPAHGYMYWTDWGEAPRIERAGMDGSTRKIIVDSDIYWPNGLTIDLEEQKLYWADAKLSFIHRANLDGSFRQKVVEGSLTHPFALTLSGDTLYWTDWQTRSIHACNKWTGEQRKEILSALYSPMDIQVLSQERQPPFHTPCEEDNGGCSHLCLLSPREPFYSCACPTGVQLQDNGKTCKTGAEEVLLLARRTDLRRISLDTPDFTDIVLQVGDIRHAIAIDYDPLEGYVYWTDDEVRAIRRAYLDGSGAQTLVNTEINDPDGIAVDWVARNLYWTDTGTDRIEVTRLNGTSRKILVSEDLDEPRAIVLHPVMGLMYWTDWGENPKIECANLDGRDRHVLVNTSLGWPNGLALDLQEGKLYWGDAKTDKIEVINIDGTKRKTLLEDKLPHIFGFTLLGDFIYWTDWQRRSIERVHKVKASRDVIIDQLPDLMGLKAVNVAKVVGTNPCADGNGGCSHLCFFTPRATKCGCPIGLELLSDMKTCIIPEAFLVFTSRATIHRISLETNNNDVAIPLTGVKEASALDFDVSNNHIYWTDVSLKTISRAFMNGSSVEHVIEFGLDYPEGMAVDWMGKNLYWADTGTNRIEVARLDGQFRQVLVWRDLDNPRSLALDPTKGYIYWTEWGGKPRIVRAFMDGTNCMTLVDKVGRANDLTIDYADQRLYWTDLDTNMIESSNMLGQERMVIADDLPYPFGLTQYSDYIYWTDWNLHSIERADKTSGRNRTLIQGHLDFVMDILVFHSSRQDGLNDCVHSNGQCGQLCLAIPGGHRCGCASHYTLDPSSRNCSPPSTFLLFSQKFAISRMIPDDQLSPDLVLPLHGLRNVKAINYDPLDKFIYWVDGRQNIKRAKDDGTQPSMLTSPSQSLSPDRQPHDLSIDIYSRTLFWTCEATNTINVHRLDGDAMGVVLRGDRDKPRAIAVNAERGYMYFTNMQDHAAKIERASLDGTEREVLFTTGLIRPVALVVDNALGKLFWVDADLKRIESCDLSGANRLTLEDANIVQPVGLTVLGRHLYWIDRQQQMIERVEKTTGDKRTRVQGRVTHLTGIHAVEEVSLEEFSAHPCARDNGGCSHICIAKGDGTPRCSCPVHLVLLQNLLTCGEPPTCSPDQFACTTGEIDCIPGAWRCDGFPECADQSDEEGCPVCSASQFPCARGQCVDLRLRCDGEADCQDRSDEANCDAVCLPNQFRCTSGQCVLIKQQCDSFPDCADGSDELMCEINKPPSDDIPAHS
method: single-point ELISA, coated antigen, purified Fab or IgG1, anti-kappa-HRP
measurement.label: binding result

LRP5-H5 (antibody, V domains shown, Fab-phage in the screen) VH: EVQLVESGGGLVQPGGSLRLSCAASGFNLSYSSIHWVRQAPGKGLEWVASISSSYGSTSYADSVKGRFTISADTSKNTAYLQMNSLRAEDTAVYYCARGYWAIDYWGQGTLVTVSS VL: DIQMTQSPSSLSASVGDRVTITCRASQSVSSAVAWYQQKPGKAPKLLIYSASSLYSGVPSRFSGSRSGTDFTLTISSLQPEDFATYYCQQPVGHYGYPITFGQGTKVEIKR = binds
LRP5-H9 (antibody, V domains shown, Fab-phage in the screen) VH: EVQLVESGGGLVQPGGSLRLSCAASGFNIYSYYIHWVRQAPGKGLEWVASIYSYYGYTYYADSVKGRFTISADTSKNTAYLQMNSLRAEDTAVYYCARSYPAMDYWGQGTLVTVSS VL: DIQMTQSPSSLSASVGDRVTITCRASQSVSSAVAWYQQKPGKAPKLLIYSASSLYSGVPSRFSGSRSGTDFTLTISSLQPEDFATYYCQQSSYSPITFGQGTKVEIKR = binds
LRP5-C12 (antibody, V domains shown, Fab-phage in the screen) VH: EVQLVESGGGLVQPGGSLRLSCAASGFNFSSSSIHWVRQAPGKGLEWVASIYSSYGSTSYADSVKGRFTISADTSKNTAYLQMNSLRAEDTAVYYCARTVRGSKKPYFSGWAMDYWGQGTLVTVSS VL: DIQMTQSPSSLSASVGDRVTITCRASQSVSSAVAWYQQKPGKAPKLLIYSASSLYSGVPSRFSGSRSGTDFTLTISSLQPEDFATYYCQQFSHVSLITFGQGTKVEIKR = binds
